The reported numbers originate from patent US8883963B2.

Experiment: Stability in human plasma
Type: in vitro ADME
Settings: 2 μM peptidomimetic, pooled human plasma, 37° C., 24 h
Procedure: Reactions were terminated by the addition of TFA/H2O (15 mL, 10% (v/v)). […] The column was equilibrated with TFA/H20, at a flow rate of 1 mL/min.
Non-standard residues stand in square brackets, D forms with d. Residues, ends and D or L forms follow the SMILES beside them. ξ: configuration not given here. Leu(5,5,5,5',5',5'-F6) = N[C@@H](CC(C(F)(F)F)C(F)(F)F)C(=O)O; ξBip(2'-Et-4'-OMe) = CCc1cc(OC)ccc1-c1ccc(CC(N)C(=O)O)cc1; ξbishPhe(2-F) = NC(CCCc1ccccc1F)C(=O)O; ξαMePhe(2-F) = CC(N)(Cc1ccccc1F)C(=O)O; Aib = CC(C)(N)C(=O)O
Reported % degradation of peptidomimetics in 24 h when incubated with human plasma by item:
Reply with just the number (in %).

Worked cases, answers included:
>>> recorded_measurement("CCc1cc(OC)ccc1-c1ccc(CC(NC(=O)[C@H](CC(=O)O)NC(=O)[C@H](CO)NC(=O)[C@@H](NC(=O)[C@H](Cc2ccccc2)NC(=O)[C@@H](NC(=O)CNC(=O)C(CCC#N)NC(=O)C(C)(C)NC(=O)[C@@H](N)Cc2c[nH]cn2)[C@@H](C)O)[C@@H](C)O)C(=O)NC(CCCc2cc(C)cc(C)c2)C(N)=O)cc1 (single isomer, unassigned) [compound 30]")
"00"
>>> recorded_measurement("CCc1cc(OC)ccc1-c1ccc(CC(NC(=O)[C@H](CC(=O)O)NC(=O)[C@H](CO)NC(=O)[C@@H](NC(=O)[C@H](Cc2ccccc2)NC(=O)[C@@H](NC(=O)CNC(=O)[C@H](CCC(N)=O)NC(=O)[C@H](C)NC(=O)[C@@H](N)Cc2c[nH]cn2)[C@@H](C)O)[C@@H](C)O)C(=O)NC(CCCc2ccc(Cl)cc2C)C(N)=O)cc1 (single isomer, unassigned) [compound 16]")
71

Lab note: measured % degradation of peptidomimetics in 24 h when incubated with human plasma of CCc1cc(OC)ccc1-c1ccc(CC(NC(=O)[C@H](CC(=O)O)NC(=O)[C@H](CO)NC(=O)[C@@H](NC(=O)C(C)(Cc2ccccc2F)NC(=O)[C@@H](NC(=O)CNC(=O)[C@H](CC(C(F)(F)F)C(F)(F)F)NC(=O)C(C)(C)NC(=O)[C@H](Cc2c[nH]cn2)NC(C)=O)[C@@H](C)O)[C@@H](C)O)C(=O)NC(CCCc2ccccc2F)C(N)=O)cc1 (stereo partly drawn) [compound 212] (Ac-H[Aib][Leu(5,5,5,5',5',5'-F6)]GT[ξαMePhe(2-F)]TSD[ξBip(2'-Et-4'-OMe)][ξbishPhe(2-F)]-NH2) was 80

====

Test: Stability in simulated gastric fluid
Assay type: in vitro ADME
Conditions: 2 μM peptidomimetic, simulated gastric fluid pH 1.5, 37° C., 24 h
property-label: % degradation of peptidomimetics in 24 h when incubated with simulated gastric fluid (%)
Reply with just the number (in %).

>>> recorded_measurement("CCc1cc(OC)ccc1-c1ccc(CC(C(=O)N(C)C(CCCc2ccccc2F)C(N)=O)N(C)C(=O)[C@H](CC(=O)O)N(C)C(=O)[C@H](CO)NC(=O)[C@@H](NC(=O)C(C)(Cc2ccccc2F)NC(=O)[C@@H](NC(=O)CNC(=O)C(CCC#N)NC(=O)C(C)(C)NC(=O)[C@@H](N)Cc2c[nH]cn2)[C@H](C)O)[C@H](C)O)cc1 (single isomer, unassigned)")
14
>>> recorded_measurement("CCc1cc(OC)ccc1-c1ccc(CC(NC(=O)[C@H](CC(=O)O)NC(=O)[C@H](CO)NC(=O)[C@@H](NC(=O)[C@H](Cc2ccccc2)NC(=O)[C@@H](NC(=O)CNC(=O)[C@H](CCC(N)=O)NC(=O)[C@H](CO)NC(=O)[C@@H](N)Cc2c[nH]cn2)[C@@H](C)O)[C@@H](C)O)C(=O)NC(CCCc2ccccc2Cl)C(N)=O)cc1 (single isomer, unassigned)")
13

Now turn to the next molecule.
Lab note: measured % degradation of peptidomimetics in 24 h when incubated with simulated gastric fluid of CCc1cc(OC)ccc1-c1ccc(CC(NC(=O)[C@H](CC(=O)O)NC(=O)[C@H](CO)NC(=O)[C@@H](NC(=O)C(C)(Cc2ccccc2F)NC(=O)[C@@H](NC(=O)CNC(=O)C(CCC#N)NC(=O)C(C)(C)NC(=O)[C@@H](N)Cc2c[nH]cn2)[C@H](C)O)[C@@H](C)O)C(=O)NC(CCCc2ccccc2)C(N)=O)cc1 (single isomer, unassigned) was 43

====

Reported Human GLP-1 R activity (cAMP release), % activity with respect to control by item:
Target: Human GLP-1 receptor (Homo sapiens)
Construct: The full-length cDNA was cloned in pcDNA3.1(+); expressed in transfected cells
Sequence (P43220 24-463): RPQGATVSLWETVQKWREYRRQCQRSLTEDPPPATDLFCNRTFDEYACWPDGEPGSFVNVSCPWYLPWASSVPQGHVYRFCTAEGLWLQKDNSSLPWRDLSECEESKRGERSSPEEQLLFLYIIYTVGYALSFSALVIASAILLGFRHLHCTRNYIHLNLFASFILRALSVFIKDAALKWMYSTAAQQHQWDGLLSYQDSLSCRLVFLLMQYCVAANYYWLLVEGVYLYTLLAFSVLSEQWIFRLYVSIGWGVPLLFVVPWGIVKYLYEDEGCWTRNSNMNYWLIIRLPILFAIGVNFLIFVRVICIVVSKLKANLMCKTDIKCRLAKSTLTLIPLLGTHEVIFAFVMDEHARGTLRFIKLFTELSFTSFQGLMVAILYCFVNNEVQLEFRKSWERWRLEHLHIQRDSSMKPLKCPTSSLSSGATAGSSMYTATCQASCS
Assay: In vitro Human GLP-1 R agonist activity (cyclic AMP determination) in CHO/human GLP1R cells
Assay type: cell-based
Conditions: 1 nM test compound
Reply with just the number (in %).

Worked cases, answers included:
>>> recorded_measurement("CCc1cc(OC)ccc1-c1ccc(CC(NC(=O)[C@H](CC(=O)O)NC(=O)[C@H](CO)NC(=O)[C@@H](NC(=O)C(C)(Cc2ccccc2F)NC(=O)[C@@H](NC(=O)CNC(=O)[C@H](CC(C(F)(F)F)C(F)(F)F)NC(=O)C(C)(C)NC(=O)[C@@H](N)Cc2c[nH]cn2)[C@H](C)O)[C@H](C)O)C(=O)NC(CCCc2ccccc2)C(N)=O)cc1 (single isomer, unassigned) [compound 228]")
99
>>> recorded_measurement("CCc1cc(OC)ccc1-c1ccc(CC(NC(=O)[C@H](CC(=O)O)NC(=O)[C@H](CO)NC(=O)[C@@H](NC(=O)C(C)(Cc2ccccc2F)NC(=O)[C@@H](NC(=O)CNC(=O)[C@H](CC(C(F)(F)F)C(F)(F)F)NC(=O)C(C)(C)NC(=O)[C@H](Cc2c[nH]cn2)NC(C)=O)[C@@H](C)O)[C@@H](C)O)C(=O)NC(CCCc2ccccc2)C(N)=O)cc1 (single isomer, unassigned) [compound 210]")
46
>>> recorded_measurement("CCc1cc(OC)ccc1-c1ccc(CC(NC(=O)[C@H](CC(=O)O)NC(=O)[C@H](CO)NC(=O)[C@@H](NC(=O)C(C)(Cc2ccccc2F)NC(=O)[C@@H](NC(=O)CNC(=O)C(CCC#N)NC(=O)C(C)(C)NC(=O)[C@@H](N)Cc2c[nH]cn2)[C@H](C)O)[C@@H](C)O)C(=O)NC(CCCc2ccccc2)C(N)=O)cc1 (single isomer, unassigned) [compound 110]")
38
>>> recorded_measurement("CCc1cc(OC)ccc1-c1ccc(CC(NC(=O)[C@H](CC(=O)O)NC(=O)[C@H](CO)NC(=O)[C@@H](NC(=O)[C@H](Cc2ccccc2)NC(=O)[C@@H](NC(=O)CNC(=O)[C@H](CCC(N)=O)NC(=O)[C@H](CO)NC(=O)[C@@H](N)Cc2c[nH]cn2)[C@@H](C)O)[C@@H](C)O)C(=O)NC(CCCc2ccccc2C(F)(F)F)C(N)=O)cc1 (single isomer, unassigned) [compound 47]")
55

Now turn to the next molecule.
Recorded Human GLP-1 R activity (cAMP release), % activity with respect to control for CCc1cc(OC)ccc1-c1ccc(CC(NC(=O)[C@H](CC(=O)O)NC(=O)[C@H](CO)NC(=O)[C@@H](NC(=O)C(C)(Cc2ccccc2F)NC(=O)[C@@H](NC(=O)CNC(=O)C(CCC#N)NC(=O)C(C)(C)NC(=O)[C@H](Cc2c[nH]cn2)NC(C)=O)[C@@H](C)O)[C@@H](C)O)C(=O)NC(CCCc2ccccc2F)C(N)=O)cc1 (single isomer, unassigned) [compound 207] on Human GLP-1 receptor (Homo sapiens) was 40

====

Test: Stability in liver microsomes
Type: in vitro ADME
Conditions: pH 7.8; 2 μM peptidomimetic, human liver microsomes, 37° C.; read-out: half-life (t1/2) when incubated with liver microsomes
Non-standard residues stand in square brackets, D forms with d. Residues, ends and D or L forms follow the SMILES beside them. ξ: configuration not given here. ξBip(2'-Et-4'-OMe) = CCc1cc(OC)ccc1-c1ccc(CC(N)C(=O)O)cc1; ξNva(5-(3-Cl-Ph)) = NC(CCCc1cccc(Cl)c1)C(=O)O
property-label: half-life at 2 μM (h)
Reply with just the number (in h).

Worked cases, answers included:
>>> recorded_measurement("CCc1cc(OC)ccc1-c1ccc(CC(NC(=O)[C@H](CC(=O)O)NC(=O)[C@H](CO)NC(=O)[C@@H](NC(=O)C(C)(Cc2ccccc2F)NC(=O)[C@@H](NC(=O)CNC(=O)[C@H](CC(C(F)(F)F)C(F)(F)F)NC(=O)C(C)(C)NC(=O)[C@@H](N)Cc2c[nH]cn2)[C@H](C)O)[C@H](C)O)C(=O)NC(CCCc2ccccc2F)C(N)=O)cc1 (some centres unmarked)")
0.5
>>> recorded_measurement("CCc1cc(OC)ccc1-c1ccc(CC(NC(=O)[C@H](CC(=O)O)NC(=O)[C@H](CO)NC(=O)[C@@H](NC(=O)[C@H](Cc2ccccc2)NC(=O)[C@@H](NC(=O)CNC(=O)[C@H](CCC(N)=O)NC(=O)[C@H](C)NC(=O)[C@@H](N)Cc2c[nH]cn2)[C@@H](C)O)[C@@H](C)O)C(=O)NC(CCCc2ccc(Cl)cc2C)C(N)=O)cc1 (single isomer, unassigned)")
1
>>> recorded_measurement("CCc1cc(OC)ccc1-c1ccc(CC(NC(=O)[C@H](CC(=O)O)NC(=O)[C@H](CO)NC(=O)[C@@H](NC(=O)[C@H](Cc2ccccc2)NC(=O)[C@@H](NC(=O)CNC(=O)[C@H](CCC(N)=O)NC(=O)[C@H](CO)NC(=O)[C@@H](N)Cc2c[nH]cn2)[C@@H](C)O)[C@@H](C)O)C(=O)NC(CCCc2ccccc2C(F)(F)F)C(N)=O)cc1 (single isomer, unassigned)")
1
>>> recorded_measurement("CCc1cc(OC)ccc1-c1ccc(CC(NC(=O)[C@H](CC(=O)O)NC(=O)[C@H](CO)NC(=O)[C@@H](NC(=O)[C@H](Cc2ccccc2)NC(=O)[C@@H](NC(=O)CNC(=O)[C@H](CCC(N)=O)NC(=O)[C@H](CO)NC(=O)[C@@H](N)Cc2c[nH]cn2)[C@@H](C)O)[C@@H](C)O)C(=O)NC(CCCc2cccc(Cl)c2)C(N)=O)cc1 (some centres unmarked) [compound 7] (H-HSQGTFTSD[ξBip(2'-Et-4'-OMe)][ξNva(5-(3-Cl-Ph))]-NH2)")
2

Lab note: measured half-life at 2 μM of CCc1cc(OC)ccc1-c1ccc(CC(NC(=O)[C@H](CC(=O)O)NC(=O)[C@H](CO)NC(=O)[C@@H](NC(=O)[C@H](Cc2ccccc2)NC(=O)[C@@H](NC(=O)CNC(=O)[C@H](CCC(N)=O)NC(=O)C2(NC(=O)[C@@H](N)Cc3c[nH]cn3)CC2)[C@@H](C)O)[C@@H](C)O)C(=O)NC(CCCc2ccc(F)cc2C(F)(F)F)C(N)=O)cc1 (single isomer, unassigned) was 1
